B1: glmS ribozyme (parent)
chain: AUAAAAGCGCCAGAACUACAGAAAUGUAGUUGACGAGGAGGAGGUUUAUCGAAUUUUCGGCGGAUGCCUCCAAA

Variants of: B1
test method notes: self-cleavage kobs at 40 uM GlcN6P; higher = faster cleavage; RNA array
test conditions: with glucosamine-6-phosphate
Fewer inactive variants are shown than the library holds.
Reported self-cleavage kobs at 40 uM GlcN6P by item:

Below are worked cases with known answers.
AUAAAAGCGCCAGAACUACAGAAAUGUAGUUGACGAGGAGGAGGUUUAUCGAAUUUUCGGAUGAUGCCUCCAAA [C61A G62U]
< 1e-05 s⁻¹
AUAAAAGCGACAGAACUACAGAAAUGUAGUUGACGAGGAGGAGGUUUAUCGCAUUUUCGGCGGAUGCCUCCAAA [C10A A52C]
< 1e-05 s⁻¹
AUAAAAGCGCCAGAACUACAGAAAUGUAGUUGACGAGGAGGAGGUUUAUCGAAUAUUCGGCUGAUGCCUCCAAA [U55A G62U]
< 1e-05 s⁻¹
AUAAACGCGCAAGAACUACAGAAAUGUAGUUGACGAGGAGGAGGUUUAUCGAAUUUUCGGCGGAUGCCUCCAAA [A6C C11A]
< 1e-05 s⁻¹

Recorded self-cleavage kobs at 40 uM GlcN6P for AUAAAAGCGCCGGAACUACAGAAAUGUAGUUGACGAGGAGGAGGUUUAUCGAAUUUUCGGCGGAUUUCUCCAAA [A12G G66U C67U] , please?
< 1e-05 s⁻¹

Again, but for AUAAAAGCGUCAGAACUACAGAAAUGUAGUUGACGAGGAAGAGGUUUAUCGAAUUUUCGGCGGAUGACUCCAAA [C10U G40A C67A]
< 1e-05 s⁻¹

How about AUAAAAGCGCCAGAACUACAGAAAUGUAGUUGACGAGGAGGAGGUUUAUCGAAUUCUCAGCGGAUGCCUCCAAA [U56C G59A] ?
< 1e-05 s⁻¹
